Target: UBE2E3
Test: reporter assay of Huesken 2005
Conditions: siRNA
Oligonucleotides are written 5' to 3', each unit as a sugar letter and its base; * is a phosphorothioate linkage, no mark a phosphodiester; rarer units and linkages stand in square brackets, end groups in braces. Plain capitals give the bases only. d = 2'-deoxy (DNA); r = 2'-OH (RNA)
Kindly supply the reported normalised inhibition (eCFP-eYFP dual reporter) values for the records listed here.
Just the number in %, nothing appended.

Need normalised inhibition (eCFP-eYFP dual reporter) of sense rGrGrArGrCrUrArGrCrUrGrArArArUrArArCrCdTdT / antisense rGrGrUrUrArUrUrUrCrArGrCrUrArGrCrUrCrCdTdT , thanks.
80.5

Record request: normalised inhibition (eCFP-eYFP dual reporter) value, item sense rArArArArCrCrUrUrCrUrGrCrCrArCrCrCrArGdTdT / antisense rCrUrGrGrGrUrGrGrCrArGrArArGrGrUrUrUrUdCdT
32.1

Report normalised inhibition (eCFP-eYFP dual reporter) for sense rArUrCrArCrUrGrCrArArCrArUrCrArArCrArGdTdT / antisense rCrUrGrUrUrGrArUrGrUrUrGrCrArGrUrGrArUdAdG please.
69.7

Name the reported normalised inhibition (eCFP-eYFP dual reporter) value associated with the substance sense rArUrUrUrArArGrCrCrArCrCrArArArGrGrUrUdTdT / antisense rArArCrCrUrUrUrGrGrUrGrGrCrUrUrArArArUdGdG
64.2

So what's the measured normalised inhibition (eCFP-eYFP dual reporter) for this one? sense rCrGrCrArCrCrArGrArArUrCrUrArUrCrArCrUdTdT / antisense rArGrUrGrArUrArGrArUrUrCrUrGrGrUrGrCrGdGdA
73.4

// returns reported normalised inhibition (eCFP-eYFP dual reporter) for input sense rCrArArCrCrCrUrGrCrGrGrArUrCrCrUrCrUrGdTdT / antisense rCrArGrArGrGrArUrCrCrGrCrArGrGrGrUrUrGdCdA
56.3

* * *

Kindly supply the reported normalised inhibition (eCFP-eYFP dual reporter) values for the records listed here.
Biological target: TMEM63B
Test: reporter assay of Huesken 2005
Conditions: siRNA
Oligonucleotides are given in HELM: sugar(base)linkage, 5' to 3'; d 2'-deoxyribose, r ribose, m 2'-O-methylribose, p phosphate. ss, as = sense and antisense strand
Give the value, in units of %, as a plain number.

What value of normalised inhibition (eCFP-eYFP dual reporter) on TMEM63B does `RNA1{r(G)p.r(C)p.r(A)p.r(U)p.r(U)p.r(U)p.r(U)p.r(G)p.r(A)p.r(G)p.r(G)p.r(A)p.r(A)p.r(G)p.r(C)p.r(C)p.r(U)p.r(A)p.r(C)p.d(T)p.d(T)}|RNA2{r(G)p.r(U)p.r(A)p.r(G)p.r(G)p.r(C)p.r(U)p.r(U)p.r(C)p.r(C)p.r(U)p.r(C)p.r(A)p.r(A)p.r(A)p.r(A)p.r(U)p.r(G)p.r(C)p.d(T)p.d(T)}$$$RNA1{StrandType:ss}|RNA2{StrandType:as}$` have?
87.3

Provide the documented normalised inhibition (eCFP-eYFP dual reporter) with TMEM63B as the system for `RNA1{r(A)p.r(U)p.r(C)p.r(A)p.r(A)p.r(U)p.r(G)p.r(U)p.r(C)p.r(G)p.r(U)p.r(C)p.r(C)p.r(U)p.r(C)p.r(U)p.r(U)p.r(C)p.r(A)p.d(T)p.d(T)}|RNA2{r(U)p.r(G)p.r(A)p.r(A)p.r(G)p.r(A)p.r(G)p.r(G)p.r(A)p.r(C)p.r(G)p.r(A)p.r(C)p.r(A)p.r(U)p.r(U)p.r(G)p.r(A)p.r(U)p.d(G)p.d(A)}$$$RNA1{StrandType:ss}|RNA2{StrandType:as}$`
49.2

* * *

Biological target: UBE2K
Experiment: reporter assay of Huesken 2005
Settings: siRNA
Oligonucleotides are given in HELM: sugar(base)linkage, 5' to 3'; d 2'-deoxyribose, r ribose, m 2'-O-methylribose, p phosphate. ss, as = sense and antisense strand
Assign satisfied to entries whose normalised inhibition (eCFP-eYFP dual reporter) meets or exceeds 60%; assign not satisfied to the rest.

Quick check, normalised inhibition (eCFP-eYFP dual reporter) >= 60%? `RNA1{r(A)p.r(A)p.r(A)p.r(U)p.r(A)p.r(G)p.r(C)p.r(A)p.r(G)p.r(G)p.r(A)p.r(C)p.r(C)p.r(U)p.r(C)p.r(C)p.r(A)p.r(G)p.r(A)p.d(T)p.d(T)}|RNA2{r(U)p.r(C)p.r(U)p.r(G)p.r(G)p.r(A)p.r(G)p.r(G)p.r(U)p.r(C)p.r(C)p.r(U)p.r(G)p.r(C)p.r(U)p.r(A)p.r(U)p.r(U)p.r(U)p.d(C)p.d(T)}$$$RNA1{StrandType:ss}|RNA2{StrandType:as}$`
satisfied

Check the entry `RNA1{r(U)p.r(G)p.r(G)p.r(G)p.r(C)p.r(A)p.r(G)p.r(C)p.r(U)p.r(G)p.r(C)p.r(A)p.r(A)p.r(U)p.r(G)p.r(A)p.r(C)p.r(U)p.r(C)p.d(T)p.d(T)}|RNA2{r(G)p.r(A)p.r(G)p.r(U)p.r(C)p.r(A)p.r(U)p.r(U)p.r(G)p.r(C)p.r(A)p.r(G)p.r(C)p.r(U)p.r(G)p.r(C)p.r(C)p.r(C)p.r(A)p.d(T)p.d(T)}$$$RNA1{StrandType:ss}|RNA2{StrandType:as}$` : does normalised inhibition (eCFP-eYFP dual reporter) equal or exceed 60%?
not satisfied

// inclusive: normalised inhibition (eCFP-eYFP dual reporter) at least 60%? input: `RNA1{r(G)p.r(A)p.r(A)p.r(U)p.r(U)p.r(A)p.r(A)p.r(G)p.r(A)p.r(G)p.r(G)p.r(A)p.r(G)p.r(A)p.r(A)p.r(A)p.r(U)p.r(A)p.r(G)p.d(T)p.d(T)}|RNA2{r(C)p.r(U)p.r(A)p.r(U)p.r(U)p.r(U)p.r(C)p.r(U)p.r(C)p.r(C)p.r(U)p.r(C)p.r(U)p.r(U)p.r(A)p.r(A)p.r(U)p.r(U)p.r(C)p.d(T)p.d(G)}$$$RNA1{StrandType:ss}|RNA2{StrandType:as}$`
satisfied

Has `RNA1{r(U)p.r(U)p.r(G)p.r(U)p.r(A)p.r(G)p.r(A)p.r(U)p.r(G)p.r(A)p.r(G)p.r(A)p.r(A)p.r(U)p.r(U)p.r(U)p.r(U)p.r(A)p.r(C)p.d(T)p.d(T)}|RNA2{r(G)p.r(U)p.r(A)p.r(A)p.r(A)p.r(A)p.r(U)p.r(U)p.r(C)p.r(U)p.r(C)p.r(A)p.r(U)p.r(C)p.r(U)p.r(A)p.r(C)p.r(A)p.r(A)p.d(G)p.d(A)}$$$RNA1{StrandType:ss}|RNA2{StrandType:as}$` a recorded normalised inhibition (eCFP-eYFP dual reporter) greater than or equal to 60%?
not satisfied

Test whether the substance `RNA1{r(C)p.r(C)p.r(A)p.r(G)p.r(A)p.r(U)p.r(G)p.r(A)p.r(U)p.r(C)p.r(C)p.r(A)p.r(C)p.r(A)p.r(G)p.r(G)p.r(A)p.r(U)p.r(G)p.d(T)p.d(T)}|RNA2{r(C)p.r(A)p.r(U)p.r(C)p.r(C)p.r(U)p.r(G)p.r(U)p.r(G)p.r(G)p.r(A)p.r(U)p.r(C)p.r(A)p.r(U)p.r(C)p.r(U)p.r(G)p.r(G)p.d(C)p.d(T)}$$$RNA1{StrandType:ss}|RNA2{StrandType:as}$` records normalised inhibition (eCFP-eYFP dual reporter) of 60% or higher.
satisfied

Hi, just wondering whether `RNA1{r(G)p.r(U)p.r(U)p.r(U)p.r(G)p.r(G)p.r(A)p.r(U)p.r(A)p.r(U)p.r(C)p.r(C)p.r(U)p.r(G)p.r(A)p.r(A)p.r(A)p.r(G)p.r(A)p.d(T)p.d(T)}|RNA2{r(U)p.r(C)p.r(U)p.r(U)p.r(U)p.r(C)p.r(A)p.r(G)p.r(G)p.r(A)p.r(U)p.r(A)p.r(U)p.r(C)p.r(C)p.r(A)p.r(A)p.r(A)p.r(C)p.d(A)p.d(A)}$$$RNA1{StrandType:ss}|RNA2{StrandType:as}$` shows normalised inhibition (eCFP-eYFP dual reporter) of 60% or higher.
satisfied

Hi team, for `RNA1{r(C)p.r(A)p.r(G)p.r(U)p.r(A)p.r(C)p.r(A)p.r(A)p.r(A)p.r(C)p.r(A)p.r(A)p.r(A)p.r(A)p.r(U)p.r(C)p.r(C)p.r(C)p.r(G)p.d(T)p.d(T)}|RNA2{r(C)p.r(G)p.r(G)p.r(G)p.r(A)p.r(U)p.r(U)p.r(U)p.r(U)p.r(G)p.r(U)p.r(U)p.r(U)p.r(G)p.r(U)p.r(A)p.r(C)p.r(U)p.r(G)p.d(A)p.d(T)}$$$RNA1{StrandType:ss}|RNA2{StrandType:as}$` , is the recorded normalised inhibition (eCFP-eYFP dual reporter) at or above 60%?
satisfied

Assess whether reported normalised inhibition (eCFP-eYFP dual reporter) for `RNA1{r(A)p.r(U)p.r(G)p.r(U)p.r(U)p.r(C)p.r(A)p.r(A)p.r(A)p.r(C)p.r(A)p.r(G)p.r(A)p.r(C)p.r(A)p.r(G)p.r(C)p.r(U)p.r(C)p.d(T)p.d(T)}|RNA2{r(G)p.r(A)p.r(G)p.r(C)p.r(U)p.r(G)p.r(U)p.r(C)p.r(U)p.r(G)p.r(U)p.r(U)p.r(U)p.r(G)p.r(A)p.r(A)p.r(C)p.r(A)p.r(U)p.d(T)p.d(T)}$$$RNA1{StrandType:ss}|RNA2{StrandType:as}$` sits at 60% or higher.
satisfied

Item `RNA1{r(U)p.r(A)p.r(G)p.r(U)p.r(A)p.r(G)p.r(C)p.r(A)p.r(A)p.r(A)p.r(U)p.r(C)p.r(A)p.r(G)p.r(U)p.r(A)p.r(C)p.r(A)p.r(A)p.d(T)p.d(T)}|RNA2{r(U)p.r(U)p.r(G)p.r(U)p.r(A)p.r(C)p.r(U)p.r(G)p.r(A)p.r(U)p.r(U)p.r(U)p.r(G)p.r(C)p.r(U)p.r(A)p.r(C)p.r(U)p.r(A)p.d(C)p.d(A)}$$$RNA1{StrandType:ss}|RNA2{StrandType:as}$` with normalised inhibition (eCFP-eYFP dual reporter) of 60% or above?
satisfied
